Target: Adenosine receptor A2b (Homo sapiens) (UniProt P29275)
Sequence (whole entry): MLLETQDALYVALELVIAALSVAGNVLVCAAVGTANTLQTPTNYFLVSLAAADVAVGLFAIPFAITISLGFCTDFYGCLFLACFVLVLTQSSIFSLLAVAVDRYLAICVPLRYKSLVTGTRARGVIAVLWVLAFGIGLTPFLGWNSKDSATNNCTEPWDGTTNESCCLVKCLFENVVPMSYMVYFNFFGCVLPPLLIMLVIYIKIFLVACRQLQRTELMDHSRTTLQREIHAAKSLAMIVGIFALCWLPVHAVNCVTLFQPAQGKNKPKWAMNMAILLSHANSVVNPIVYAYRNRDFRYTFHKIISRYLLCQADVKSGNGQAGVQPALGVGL
Assay: Agonist activity human adenosine A2B receptor expressed in CHO cells assessed as stimulation of adenylate cyclase relative to NECA
Type: functional, cell-based
measurement kind: Activity

(Q) Requested field: Activity. Item: CCNC(=O)[C@H]1O[C@@H](n2cnc3c(Nc4ccc(OCC(=O)NCc5ccccc5)cc4)nc(Cl)nc32)[C@H](O)[C@@H]1O
(A) -0.053

(Q) And CCNC(=O)[C@H]1O[C@@H](n2cnc3c(Nc4ccc(OCC(=O)Nc5ccncc5)cc4)ncnc32)[C@H](O)[C@@H]1O ?
(A) 0.681

(Q) Also, CCNC(=O)[C@H]1O[C@@H](n2cnc3c(Nc4ccc(OCC(=O)NCc5ccccc5)cc4)ncnc32)[C@H](O)[C@@H]1O please.
(A) 0.014

(Q) Let us now turn to CC(C)Nc1nc(C#C[C@H](O)c2ccccc2)nc2c1ncn2[C@@H]1O[C@H](CO)[C@@H](O)[C@H]1O
(A) -0.569

(Q) What do we get for CCCCC#Cc1nc(NC)c2ncn([C@@H]3O[C@H](CO)[C@@H](O)[C@H]3O)c2n1 ?
(A) -1.62

(Q) Next compound up: CCNC(=O)[C@H]1O[C@@H](n2cnc3c(Nc4ccc(OCC(=O)Nc5ccc(I)cc5C(F)(F)F)cc4)ncnc32)[C@H](O)[C@@H]1O
(A) 0.161

(Q) Next entry: OC[C@H]1O[C@@H](n2cnc3c(NCc4ccccc4)ncnc32)[C@H](O)[C@@H]1O
(A) -1.49

(Q) Query CCNC(=O)[C@H]1O[C@@H](n2cnc3c(Nc4ccc(OCC(=O)NC5CCCCC5)cc4)nc(Cl)nc32)[C@H](O)[C@@H]1O next
(A) -0.29

(Q) Consider next the compound CCNC(=O)[C@H]1O[C@@H](n2cnc3c(Nc4ccc(OCC(=O)Nc5ccc(Br)cc5)cc4)ncnc32)[C@H](O)[C@@H]1O in the same way.
(A) 1.17

(Q) Please answer likewise for Nc1nc(OCCc2c[nH]c3ccc(Cl)cc23)nc2c1ncn2[C@@H]1O[C@H](CO)[C@@H](O)[C@H]1O
(A) -1.19

(Q) Item: Nc1nc(OCCc2c[nH]c3ccc(F)cc23)nc2c1ncn2[C@@H]1O[C@H](CO)[C@@H](O)[C@H]1O
(A) -0.739

(Q) What about this compound? CCNC(=O)[C@H]1O[C@@H](n2cnc3c(NNC(=O)c4ccc(C)s4)ncnc32)[C@H](O)[C@@H]1O
(A) -0.232

(Q) And for CCNC(=O)[C@H]1O[C@@H](n2cnc3c(N)nc(C#C[C@H](O)c4ccccc4)nc32)[C@H](O)[C@@H]1O ?
(A) 0

(Q) Now the same for CC(C)(C)OC(=O)C1CCCN1C[C@@H](O)[C@H](Cc1ccccc1)NC(=O)[C@H](CC(N)=O)NC(=O)OCc1ccccc1 (stereo not given in full)
(A) -0.405

(Q) Similarly, CC(C)Nc1nc(C#C[C@@H](O)c2ccccc2)nc2c1ncn2[C@@H]1O[C@H](CO)[C@@H](O)[C@H]1O ?
(A) 0.398

Provenance of the data: ChEMBL document CHEMBL1145544
